Listing of entries alongside the reported Emax.
- assay.target: PKR(R510Q) (Homo sapiens, UniProt P30613, R510Q)
- Sequence (P30613 whole entry R510Q): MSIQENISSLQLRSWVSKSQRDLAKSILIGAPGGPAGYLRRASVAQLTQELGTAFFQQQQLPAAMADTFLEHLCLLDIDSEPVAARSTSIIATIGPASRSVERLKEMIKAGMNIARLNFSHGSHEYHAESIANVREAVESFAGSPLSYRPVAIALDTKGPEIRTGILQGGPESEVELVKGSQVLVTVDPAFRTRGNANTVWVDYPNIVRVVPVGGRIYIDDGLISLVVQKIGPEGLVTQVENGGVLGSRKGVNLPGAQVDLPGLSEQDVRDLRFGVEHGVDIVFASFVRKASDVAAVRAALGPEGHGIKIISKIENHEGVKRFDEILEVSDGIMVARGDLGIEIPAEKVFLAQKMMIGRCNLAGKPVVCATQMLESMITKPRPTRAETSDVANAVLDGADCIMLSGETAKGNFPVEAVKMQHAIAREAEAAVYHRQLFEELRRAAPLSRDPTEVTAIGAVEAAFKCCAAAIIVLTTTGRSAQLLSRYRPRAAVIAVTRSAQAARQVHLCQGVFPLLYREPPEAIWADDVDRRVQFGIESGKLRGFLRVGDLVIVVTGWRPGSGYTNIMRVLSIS
- procedure.summary: Luminescence Biochemical Assay (Kinase Glo Plus), PKR R510Q mutant
- stated.conditions: without FBP, read-out: AC50 LUM KGP woFBP MAX % FOLD mean
measured.quantity: Emax

# structure.as.smiles, measured.quantity, endpoint.result
measured = [
    ("Cc1cccc(S(=O)(=O)N2CC3=C(CN(C(=O)NCc4ccccc4F)C3)C2)n1", "Emax", "250 to 500%"),
    ("Cc1nn(C)c(Cl)c1S(=O)(=O)N1CC2=C(CN(C(=O)[C@H](C)c3ccccc3)C2)C1", "Emax", "75 to 250%"),
    ("CN1CCOc2ccc(S(=O)(=O)N3CC4=C(CN(C(=O)NCc5ccc(F)cc5)C4)C3)cc21", "Emax", "75 to 250%"),
    ("COc1cccc(CNC(=O)N2CC3=C(C2)CN(S(=O)(=O)c2cccc(F)c2)C3)c1", "Emax", "75 to 250%"),
]

---

- assay.target: PKR(R510Q) (Homo sapiens, UniProt P30613, R510Q)
- procedure.summary: Luminescence Biochemical Assay (Kinase Glo Plus), PKR R510Q mutant
- stated.conditions: without FBP, 1.54 μM compound, read-out: AC50 LUM KGP woFBP % Fold@1.54 μM mean
Listing of entries alongside the reported activation at 1.54 µM.
measured.quantity: activation at 1.54 µM

# molecule, measured.quantity, endpoint.result
measured = [
    ("CN1CCOc2ccc([C@H](O)C(=O)N3CC4=C(C3)CN(S(=O)(=O)c3ccc(OC(F)F)cc3)C4)cc21 (single isomer, unassigned)", "activation at 1.54 µM", "250 to 50000%"),
    ("Cc1cc(CNC(=O)N2CC3=C(C2)CN(S(=O)(=O)c2ccc(OC(F)F)cc2)C3)no1", "activation at 1.54 µM", "250 to 50000%"),
    ("O=C(C(F)c1ccccc1)N1CC2=C(C1)CN(S(=O)(=O)c1ccc(OC(F)F)cc1)C2 (centres unmarked)", "activation at 1.54 µM", "250 to 50000%"),
    ("O=C(C(O)c1cccc(F)c1)N1CC2=C(C1)CN(S(=O)(=O)c1ccc(OC(F)F)cc1)C2 (centres unmarked)", "activation at 1.54 µM", "250 to 50000%"),
    ("O=C([C@H](O)c1ccccc1)N1CC2=C(C1)CN(S(=O)(=O)c1cc(F)cc(F)c1)C2", "activation at 1.54 µM", "75 to 250%"),
    ("O=C(C(O)c1cccnc1)N1CC2=C(C1)CN(S(=O)(=O)c1ccc(OC(F)F)cc1)C2 (centres unmarked)", "activation at 1.54 µM", "250 to 50000%"),
    ("Cc1cc(COC(=O)N2CC3=C(C2)CN(S(=O)(=O)c2ccc(OC(F)F)cc2)C3)nn1C", "activation at 1.54 µM", "250 to 50000%"),
    ("O=C(NCc1nccs1)N1CC2=C(C1)CN(S(=O)(=O)c1ccc3ncsc3c1)C2", "activation at 1.54 µM", "75 to 250%"),
]

---

Listing of entries alongside the reported AC50.
- assay.target: PKR(R510Q) (Homo sapiens, UniProt P30613, R510Q)
- procedure.summary: Luminescence Biochemical Assay (Kinase Glo Plus), PKR R510Q mutant
- stated.conditions: without FBP, read-out: AC50 LUM KGP woFBP AC50 μM gmean
- Protocol: In some embodiments, a PKR Activating Compound can have: (1) an AC50 value of less than 0.1 μM (e.g., compounds with AC50 values of “+++” in Table 13), 0.1-1.0 μM (e.g., compounds with AC50 values of “++” in Table 13), or 1.01-40 μM (e.g., compounds with AC50 values of “+” in Table 13); (2) a MAX % Fold of 75%-250%, 250-500%, or 75%-500%; and/or (3) a % Fold@1.54 μM of 75%-250%, 250-500%, or 75%-500%. […]

# molecule, AC50
measured = [
    ("COc1cccc(CNC(=O)N2CC3=C(C2)CN(S(=O)(=O)c2ccc4ncsc4c2)C3)c1 [Example 21-17]", "1 to 40 µM"),
    ("O=C([C@@H](O)c1ccc2c(c1)NCCO2)N1CC2=C(C1)CN(S(=O)(=O)c1ccc(OC(F)F)cc1)C2 (single isomer, unassigned) [Example 9-5]", "≤ 0.1 µM"),
    ("COc1ccccc1CNC(=O)N1CC2=C(C1)CN(S(=O)(=O)c1cccc3nonc13)C2 [Example 20-19]", "0.1 to 1 µM"),
    ("Cc1cc(CNC(=O)N2CC3=C(C2)CN(S(=O)(=O)c2ccc4ncsc4c2)C3)no1 [Example 21-8]", "≤ 0.1 µM"),
]

---

- assay.target: UniProtKB P30613
- procedure.summary: Luminescence Biochemical Assay (Kinase Glo Plus), wild type PKR
- stated.conditions: without FBP, read-out: AC50 LUM KGP woFBP AC50 μM gmean
measured.quantity: AC50

# compound, endpoint.result
data = [
    ("O=C(C(O)c1cccnc1)N1CC2=C(C1)CN(S(=O)(=O)c1ccc(OC(F)F)cc1)C2 (stereo not shown) [Example 9-1]", "≤ 0.1 µM"),
    ("COc1ccccc1CNC(=O)N1CC2=C(C1)CN(S(=O)(=O)c1ccc(OC(F)F)cc1)C2 [Example 21-12]", "0.1 to 1 µM"),
    ("O=C([C@H](O)c1ccccc1)N1CC2=C(C1)CN(S(=O)(=O)c1ccc(Cl)s1)C2 [Example 18-55]", "0.1 to 1 µM"),
    ("COc1cccc(CNC(=O)N2CC3=C(C2)CN(S(=O)(=O)c2ccc(OC(F)F)cc2)C3)c1 [Example 21-11]", "≤ 0.1 µM"),
    ("COC[C@@H](C)NC(=O)N1CC2=C(C1)CN(S(=O)(=O)c1ccc3occc3c1)C2 [Example 3-3]", "1 to 40 µM"),
    ("CC(C)(O)C(=O)N1CC2=C(C1)CN(S(=O)(=O)c1ccc3occc3c1)C2 [Example 1-3]", "0.1 to 1 µM"),
    ("O=C([C@H](O)c1ccccc1)N1CC2=C(C1)CN(S(=O)(=O)c1cccc(C(F)(F)F)c1)C2 [Example 18-49]", "0.1 to 1 µM"),
    ("O=C(Cc1cnccn1)N1CC2=C(C1)CN(S(=O)(=O)c1ccc(OC(F)F)cc1)C2 [Example 18-29]", "1 to 40 µM"),
    ("O=C([C@H](O)c1ccccc1)N1CC2=C(C1)CN(S(=O)(=O)c1ccc(F)c(F)c1)C2 [Example 18-53]", "0.1 to 1 µM"),
    ("O=C(NCc1ccno1)N1CC2=C(C1)CN(S(=O)(=O)c1ccc3ncsc3c1)C2 [Example 21-27]", "0.1 to 1 µM"),
    ("O=C(NCc1cccc(F)c1)N1CC2=C(C1)CN(S(=O)(=O)c1ccc3ncsc3c1)C2 [Example 21-36]", "1 to 40 µM"),
    ("COc1ccc(CNC(=O)N2CC3=C(C2)CN(S(=O)(=O)c2cccnc2)C3)cc1 [Example 20-2]", "0.1 to 1 µM"),
    ("CC[C@@H](O)C(=O)N1CC2=C(C1)CN(S(=O)(=O)c1ccc3c(c1)N(C)CCO3)C2 [Example 18-76]", "0.1 to 1 µM"),
    ("O=C(c1ccc(OCC(F)(F)F)nc1)N1CC2=C(C1)CN(S(=O)(=O)c1ccc3occc3c1)C2 [Example 18-81]", "0.1 to 1 µM"),
    ("Cc1nc(CC(=O)N2CC3=C(C2)CN(S(=O)(=O)c2ccc(OC(F)F)cc2)C3)cs1 [Example 18-20]", "0.1 to 1 µM"),
    ("O=C(NC1CCOC1)N1CC2=C(C1)CN(S(=O)(=O)c1ccc3occc3c1)C2 (stereo not shown) [Example 3-2]", "0.1 to 1 µM"),
]

---

- assay.target: PKR(R510Q) (Homo sapiens, UniProt P30613, R510Q)
- procedure.summary: Luminescence Biochemical Assay (Kinase Glo Plus), PKR R510Q mutant
- stated.conditions: without FBP, read-out: AC50 LUM KGP woFBP AC50 μM gmean

# molecule, assay.target, AC50
records = [
    ("CN1CCOc2ccc([C@@H](O)C(=O)N3CC4=C(C3)CN(S(=O)(=O)c3ccc(OC(F)F)cc3)C4)cc21 (single isomer, unassigned)", "PKR(R510Q) (Homo sapiens, UniProt P30613, R510Q)", "1 to 40 µM"),
    ("COc1cccc(CNC(=O)N2CC3=C(C2)CN(S(=O)(=O)c2ccc(OC(F)F)cc2)C3)c1", "PKR(R510Q) (Homo sapiens, UniProt P30613, R510Q)", "≤ 0.1 µM"),
    ("N#Cc1ccccc1S(=O)(=O)N1CC2=C(CN(C(=O)[C@H](O)c3ccccc3)C2)C1", "PKR(R510Q) (Homo sapiens, UniProt P30613, R510Q)", "0.1 to 1 µM"),
    ("O=C(N1CC2=C(C1)CN(S(=O)(=O)c1ccc(OC(F)F)cc1)C2)C(F)(F)c1ccccc1", "PKR(R510Q) (Homo sapiens, UniProt P30613, R510Q)", "≤ 0.1 µM"),
    ("Cc1nc(CC(=O)N2CC3=C(C2)CN(S(=O)(=O)c2ccccn2)C3)cs1", "PKR(R510Q) (Homo sapiens, UniProt P30613, R510Q)", "1 to 40 µM"),
    ("O=C([C@H](O)c1ccc(F)cc1)N1CC2=C(C1)CN(S(=O)(=O)c1cccnc1)C2", "PKR(R510Q) (Homo sapiens, UniProt P30613, R510Q)", "1 to 40 µM"),
    ("O=C([C@@H](O)c1ccccn1)N1CC2=C(C1)CN(S(=O)(=O)c1ccc(OC(F)F)cc1)C2 (single isomer, unassigned)", "PKR(R510Q) (Homo sapiens, UniProt P30613, R510Q)", "0.1 to 1 µM"),
    ("O=C([C@H](O)c1ccccc1)N1CC2=C(C1)CN(S(=O)(=O)c1cccnc1)C2", "PKR(R510Q) (Homo sapiens, UniProt P30613, R510Q)", "1 to 40 µM"),
    ("O=C([C@H](O)c1ccccc1)N1CC2=C(C1)CN(S(=O)(=O)c1ccc(OC(F)F)cc1)C2", "PKR(R510Q) (Homo sapiens, UniProt P30613, R510Q)", "≤ 0.1 µM"),
    ("Cc1cc(CNC(=O)N2CC3=C(C2)CN(S(=O)(=O)c2cccnc2)C3)no1", "PKR(R510Q) (Homo sapiens, UniProt P30613, R510Q)", "1 to 40 µM"),
    ("COCCNC(=O)N1CC2=C(C1)CN(S(=O)(=O)c1ccc3c(c1)N(C)CCO3)C2", "PKR(R510Q) (Homo sapiens, UniProt P30613, R510Q)", "0.1 to 1 µM"),
    ("O=C([C@H](O)c1ccc(F)cc1)N1CC2=C(C1)CN(S(=O)(=O)c1ccc(C(F)(F)F)nc1)C2", "PKR(R510Q) (Homo sapiens, UniProt P30613, R510Q)", "1 to 40 µM"),
    ("COc1cc(Cl)ccc1S(=O)(=O)N1CC2=C(CN(C(=O)[C@H](O)c3ccccc3)C2)C1", "PKR(R510Q) (Homo sapiens, UniProt P30613, R510Q)", "1 to 40 µM"),
    ("COc1cccc(CNC(=O)N2CC3=C(C2)CN(S(=O)(=O)c2cccc(F)c2)C3)c1", "PKR(R510Q) (Homo sapiens, UniProt P30613, R510Q)", "0.1 to 1 µM"),
    ("O=C(NCc1ccccc1F)N1CC2=C(C1)CN(S(=O)(=O)c1ccc(C(F)(F)F)nc1)C2", "PKR(R510Q) (Homo sapiens, UniProt P30613, R510Q)", "0.1 to 1 µM"),
]
